Data provenance is patent US4732892A.

assay: in vitro penetration of levonorgestrel across hairless mouse skin, modified Franz diffusion cell; conditions: pH 4.7
measurement.type: Jss, steady state rate of penetration of levonorgestrel
Number first, unit second: that is the form wanted.

Note to self: Jss, steady state rate of penetration of levonorgestrel recorded for CC(C)[C@H](N)C(=O)O [Valine, L-(+)-Valine] was 1.7903 mcg/cm^2 /hr

Note to self: Jss, steady state rate of penetration of levonorgestrel recorded for N[C@@H](CO)C(=O)O [Serine, L-(-)-Serine] was 1.1287 mcg/cm^2 /hr

Note to self: Jss, steady state rate of penetration of levonorgestrel recorded for NCC(=O)O was 1.2790 mcg/cm^2 /hr

Note to self: Jss, steady state rate of penetration of levonorgestrel recorded for N[C@@H](Cc1c[nH]c2ccccc12)C(=O)O [Tryptophan, L-(-)-Tryptophan] was 0.6020 mcg/cm^2 /hr

====

assay: in vitro penetration of levonorgestrel across hairless mouse skin, modified Franz diffusion cell
Please use y for Jss, steady state rate of penetration of levonorgestrel under 0.9 mcg/cm^2 /hr and n for everything else, ties included.

// query Dear reviewer, please state whether CC[C@H](C)[C@H](N)C(=O)O [Isoleucine, L-(+)-Isoleucine] has Jss, steady state rate of penetration of levonorgestrel strictly beneath 0.9 mcg/cm^2 /hr.
// result n

// query Dear reviewer, please state whether O=C(O)[C@@H]1CCCN1 [Proline, L-(-)-Proline] has Jss, steady state rate of penetration of levonorgestrel strictly beneath 0.9 mcg/cm^2 /hr.
// result y

// query Dear reviewer, please state whether N[C@@H](Cc1c[nH]c2ccccc12)C(=O)O [Tryptophan, L-(-)-Tryptophan] has Jss, steady state rate of penetration of levonorgestrel strictly beneath 0.9 mcg/cm^2 /hr.
// result y

// query Dear reviewer, please state whether C[C@H](N)C(=O)O has Jss, steady state rate of penetration of levonorgestrel strictly beneath 0.9 mcg/cm^2 /hr.
// result y

// query Dear reviewer, please state whether CC(C)[C@H](N)C(=O)O [Valine, L-(+)-Valine] has Jss, steady state rate of penetration of levonorgestrel strictly beneath 0.9 mcg/cm^2 /hr.
// result n

// query Dear reviewer, please state whether N[C@@H](CO)C(=O)O [Serine, L-(-)-Serine] has Jss, steady state rate of penetration of levonorgestrel strictly beneath 0.9 mcg/cm^2 /hr.
// result y

// query Dear reviewer, please state whether N[C@@H](CS)C(=O)O [Cysteine, L-(+)-Cysteine] has Jss, steady state rate of penetration of levonorgestrel strictly beneath 0.9 mcg/cm^2 /hr.
// result n
